Target sequence: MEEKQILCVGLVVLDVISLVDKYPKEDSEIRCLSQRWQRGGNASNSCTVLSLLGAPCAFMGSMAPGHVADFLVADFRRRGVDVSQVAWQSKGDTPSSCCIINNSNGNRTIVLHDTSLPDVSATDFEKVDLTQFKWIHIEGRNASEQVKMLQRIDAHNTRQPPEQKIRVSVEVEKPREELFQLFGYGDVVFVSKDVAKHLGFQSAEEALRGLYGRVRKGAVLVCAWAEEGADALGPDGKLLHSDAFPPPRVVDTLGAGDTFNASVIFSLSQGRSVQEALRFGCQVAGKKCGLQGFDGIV
Entries and their measured IC50 follow.
Measured metric: IC50 (nM)

INSERT INTO results (compound, measured_metric, u, reading) VALUES
  ('C[C@H]1CCN1c1nc2c(c(-c3ccc4c(c3)CCNC4=O)n1)CCC2', 'IC50', 'nM', 15.8),
  ('C[C@H]1[C@H](F)CN1c1nc2c(c(-c3cccc(CN)c3)n1)CCC2', 'IC50', 'nM', 29.8),
  ('C[C@H]1CCN1c1nc2c(c(-c3ccnc(S(N)(=O)=O)c3)n1)CCC2', 'IC50', 'nM', 114),
  ('C[C@H]1CCN1c1nc(-c2ccc(C#N)c(S(C)(=N)=O)c2)c2c(n1)C(F)(F)CC2 (some centres not stated)', 'IC50', 'nM', 51.9),
  ('C[C@H]1CCN1c1nc2c(c(-c3cn(C4CC4)nn3)n1)CCC2', 'IC50', 'nM', 220),
  ('C[C@H]1[C@H](O)CN1c1nc2c(c(-c3cccc(S(N)(=O)=O)c3)n1)CCC2', 'IC50', 'nM', 55.3),
  ('C[C@H]1CCN1c1nc2c(c(-c3ccc4c(c3)C(=O)N(C)C4)n1)CCC2', 'IC50', 'nM', 16);
